- EXPERIMENTAL SYSTEM: cholesterol esterase (CHE) (Homo sapiens)
- Sequence (P19835 21-753): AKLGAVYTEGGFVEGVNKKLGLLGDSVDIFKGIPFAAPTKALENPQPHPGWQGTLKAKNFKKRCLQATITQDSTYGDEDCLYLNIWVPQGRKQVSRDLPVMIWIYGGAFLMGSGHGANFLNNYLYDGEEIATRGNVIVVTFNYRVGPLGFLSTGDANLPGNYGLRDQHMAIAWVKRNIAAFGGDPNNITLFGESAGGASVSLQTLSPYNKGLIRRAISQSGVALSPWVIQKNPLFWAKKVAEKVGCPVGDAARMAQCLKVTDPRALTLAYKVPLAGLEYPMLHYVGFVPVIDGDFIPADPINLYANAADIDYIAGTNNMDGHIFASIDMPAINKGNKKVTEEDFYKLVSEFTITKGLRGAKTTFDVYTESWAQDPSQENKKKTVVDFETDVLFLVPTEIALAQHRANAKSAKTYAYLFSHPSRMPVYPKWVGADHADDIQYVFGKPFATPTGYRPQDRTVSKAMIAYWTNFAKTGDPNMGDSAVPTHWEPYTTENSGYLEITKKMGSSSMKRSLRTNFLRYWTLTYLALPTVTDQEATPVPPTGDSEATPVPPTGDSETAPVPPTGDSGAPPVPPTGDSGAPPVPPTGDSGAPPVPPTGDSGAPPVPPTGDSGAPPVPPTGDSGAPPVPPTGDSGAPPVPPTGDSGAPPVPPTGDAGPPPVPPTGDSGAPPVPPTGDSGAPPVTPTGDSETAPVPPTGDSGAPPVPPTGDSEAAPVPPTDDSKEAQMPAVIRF
EXPERIMENTAL READOUT: IC50 (µM)

chemical_structure=CCC(C)(C)C(=O)O[C@H]1C[C@@H](C)C=C2C=C[C@H](C)[C@H](CC[C@@H]3C[C@@H](O)CC(=O)O3)[C@H]21 experimental_readout=IC50 reading=383
